Parameter pKi, tested on WDR5 (Homo sapiens, UniProt P61964), listed per item.
pKi: −log10 of the molar value.

So what's the measured pKi for this one? `CCc1cc(N2CCn3cnnc3C2)c2nccc(N3CCc4c(cc(Cn5ccnc5)cc4-c4cn(C)nc4C(F)(F)F)C3=O)c2c1` > 10.70

So what's the measured pKi for this one? `COc1cc(C2CCOCC2)c2nc(C)cc(N3CCc4c(cc(Cn5ccnc5)cc4-c4cn(C)nc4C(F)(F)F)C3=O)c2c1` 10.38

So what's the measured pKi for this one? `COc1ccc2nc(C)cc(N3CCc4c(cc(Cn5ccnc5[N+](=O)[O-])cc4-c4cn(C)nc4C(F)(F)F)C3=O)c2c1` < 4.48

So what's the measured pKi for this one? `CCc1cnc2cncc(N3CCc4c(cc(Cn5ccnc5)cc4-c4cn(C)nc4C(F)(F)F)C3=O)c2c1` > 10.70

###

# Tested on: MV4:11 human cancer cell lines
# Protocol Details: Cellular viability / anti-proliferative assay, CellTiter-Glo, 5 day protocol
# Format: cell-based
# Condition Label: Homo sapiens, MV4-11, 120 h, MV4:11 cells; 5 day incubation; CellTiter-Glo; mean of at least two replicates; read-out: GI50 on cellular proliferation of MV4:11 human cancer cell lines
Reported Property: GI50

# Smiles String, Target Desc, Test Result
measured = [
    ("COc1cc(N2CCN(C(C)=O)CC2)c2nccc(N3CCc4c(cc(Cn5ccnc5)cc4-c4cn(C)nc4C(F)(F)F)C3=O)c2c1", "MV4:11 human cancer cell lines", "< 20 nM"),
]

So what's the measured GI50 for this one? `COc1cc(OC)c2nc(C)cc(N3CCc4c(cc(Cn5ccnc5)cc4-c4cn(C)nc4C(F)(F)F)C3=O)c2c1` < 20 nM

So what's the measured GI50 for this one? `COc1cc(CN2CCN(C(C)=O)CC2)c2nccc(N3CCc4c(cc(Cn5ccnc5)cc4-c4cn(C)nc4C(F)(F)F)C3=O)c2c1` < 20 nM
